From: ChEMBL document CHEMBL1201861

tested on: OAW-28; assay: cells; type: functional, cell-based, Homo sapiens; details: oaw-28;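 also: growth inhibition of OAW-28 cells, read out with a cell viability assay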
Description: SANGER: Inhibition of human OAW-28 cell growth in a cell viability assay.
measurementKind: IC50

OAW-28 assay, compound `Cc1cc([C@@H](C)Nc2ccccc2C(=O)O)c2nc(N3CCOCC3)cc(=O)n2c1` , recorded IC50 = > 5.12 µM

====

Property: pIC50; scope: individual molecules
system: EGI-1; test: cells; assay type: functional, cell-based, Homo sapiens; conditions: Homo sapiens, EGI-1;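 also: cell viability readout used to gauge growth inhibition of EGI-1 cells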
Description: SANGER: Inhibition of human EGI-1 cell growth in a cell viability assay.
// field semantics: pIC50 = negative decimal log of concentration (mol/L)

{"givenSmiles": "COc1ccc(-c2ccc3c(N4CCOC[C@@H]4C)nc(N4CCOC[C@@H]4C)nc3n2)cc1CO", "measurement": 6.87}

As a next step, examine the molecule that follows.
Briefly, pIC50 measured for `CC(=O)O[C@@]12CO[C@@H]1C[C@H](O)[C@@]1(C)C(=O)[C@H](O)C3=C(C)[C@@H](OC(=O)[C@H](O)[C@@H](NC(=O)OC(C)(C)C)c4ccccc4)C[C@@](O)([C@@H](OC(=O)c4ccccc4)[C@H]21)C3(C)C` : 8.44

====

Property: pIC50; scope: individual molecules
test system: LB996-RCC; assay: cells; assay type: functional, cell-based; settings: Homo sapiens
Description: SANGER: Inhibition of human LB996-RCC cell growth in a cell viability assay.
pIC50: −log10 of the molar value.

Field: example entries. Status: answers known.
{"molecule": "Cc1cnc(-c2cnc(NCCNc3ccc(C#N)cn3)nc2-c2ccc(Cl)cc2Cl)[nH]1", "pIC50": "< 5.59"}
{"molecule": "Cn1cncc1[C@@](N)(c1ccc(Cl)cc1)c1ccc2c(c1)c(-c1cccc(Cl)c1)cc(=O)n2C", "pIC50": 5.11}
{"molecule": "CN1CCN(CCOc2cc(OC3CCOCC3)c3c(Nc4c(Cl)ccc5c4OCO5)ncnc3c2)CC1", "pIC50": 6.35}
{"molecule": "COc1cc(F)c(F)c(Nc2ccc(I)cc2F)c1NS(=O)(=O)C1(CC(O)CO)CC1 (centres undefined)", "pIC50": "< 5.30"}
{"molecule": "C=C1C(=O)O[C@@H]2C3O[C@]3(C)CC/C=C(\\C)CC[C@@H]12 (some centres undefined)", "pIC50": "< 5.30"}

Briefly, pIC50 measured for `C=CCc1cccc(/C=N/NC(=O)CN2CCN(Cc3ccccc3)CC2)c1O` : < 5.59

Briefly, pIC50 measured for `CNC(=O)c1cc(Oc2ccc(NC(=O)Nc3ccc(Cl)c(C(F)(F)F)c3)cc2)ccn1` : < 5.40

Briefly, pIC50 measured for `CCc1nc(N)nc(N)c1-c1ccc(Cl)cc1` : < 4.70

Briefly, pIC50 measured for `Cc1cc(Nc2cc(N3CCN(C)CC3)nc(Sc3ccc(NC(=O)C4CC4)cc3)n2)n[nH]1` : < 5.70

====

test system: BC-3; experiment: cells; format: functional, cell-based; details: Homo sapiens;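 also: cell viability assay measuring growth inhibition of human BC-3 cells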
Description: SANGER: Inhibition of human BC-3 cell growth in a cell viability assay.
Property: pIC50; scope: individual molecules
// field semantics: pIC50 = negative decimal log of concentration (mol/L)

{"molecule": "COc1cc([C@@H]2c3cc4c(cc3[C@@H](O[C@@H]3O[C@@H]5CO[C@@H](C)O[C@H]5[C@H](O)[C@H]3O)[C@H]3COC(=O)[C@H]23)OCO4)cc(OC)c1O [ETOPOSIDE]", "pIC50": 5.61}

As a next step, examine the molecule that follows.
Briefly, pIC50 measured for CCC1=C[C@@H]2CN(C1)Cc1c([nH]c3ccccc13)[C@@](C(=O)OC)(c1cc3c(cc1OC)N(C)[C@H]1[C@@](O)(C(=O)OC)[C@H](OC(C)=O)[C@]4(CC)C=CCN5CC[C@]31[C@@H]54)C2 [VINORELBINE] : 7.51

====

test system: KARPAS-422; assay: cells; format: functional, cell-based; conditions: Homo sapiens
Description: SANGER: Inhibition of human KARPAS-422 cell growth in a cell viability assay.
pIC50: −log10 of the molar value.
measurementKind: pIC50

Field: example entries. Status: answers known.
{"molecule": "CO[C@H]1C[C@@H]2CC[C@@H](C)[C@@](O)(O2)C(=O)C(=O)N2CCCC[C@H]2C(=O)O[C@H]([C@H](C)C[C@@H]2CC[C@@H](O)[C@H](OC)C2)CC(=O)[C@H](C)/C=C(\\C)[C@@H](O)[C@@H](OC)C(=O)[C@H](C)C[C@H](C)/C=C/C=C/C=C/1C [SIROLIMUS]", "pIC50": "< 7.00"}
{"molecule": "CS(=O)(=O)CCNCc1ccc(-c2ccc3ncnc(Nc4ccc(OCc5cccc(F)c5)c(Cl)c4)c3c2)o1 [LAPATINIB]", "pIC50": "< 5.70"}
{"molecule": "CCC(=O)N1CCN(c2ccc(-n3c(=O)ccc4cnc5ccc(-c6cnc7ccccc7c6)cc5c43)cc2C(F)(F)F)CC1 [TORIN1]", "pIC50": 6.91}
{"molecule": "C=C1C(=O)O[C@@H]2C3O[C@]3(C)CC/C=C(\\C)CC[C@@H]12 (some centres undefined)", "pIC50": "< 5.30"}
{"molecule": "Cc1cc(Nc2cc(N3CCN(C)CC3)nc(Sc3ccc(NC(=O)C4CC4)cc3)n2)n[nH]1 [TOZASERTIB]", "pIC50": 6.43}
{"molecule": "Cc1ccc(Nc2nccc(N(C)c3ccc4c(C)n(C)nc4c3)n2)cc1S(N)(=O)=O [PAZOPANIB]", "pIC50": "< 5.10"}

Briefly, pIC50 measured for Cc1cnc(-c2cnc(NCCNc3ccc(C#N)cn3)nc2-c2ccc(Cl)cc2Cl)[nH]1 [LADUVIGLUSIB] : < 5.59

Briefly, pIC50 measured for COc1cc([C@@H]2c3cc4c(cc3[C@@H](O[C@@H]3O[C@@H]5CO[C@@H](C)O[C@H]5[C@H](O)[C@H]3O)[C@H]3COC(=O)[C@H]23)OCO4)cc(OC)c1O [ETOPOSIDE] : 5.36

Briefly, pIC50 measured for CN(c1ncccc1CNc1nc(Nc2ccc3c(c2)CC(=O)N3)ncc1C(F)(F)F)S(C)(=O)=O [PF-00562271] : < 5.59

====

tested on: TE-8; assay: cells; type: functional, cell-based, Homo sapiens; conditions: Homo sapiens, TE-8;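 also: growth inhibition of TE-8 cells, measured with a cell viability readout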
Description: SANGER: Inhibition of human TE-8 cell growth in a cell viability assay.
measurementKind: IC50 (µM)
Entry rule: numbers only, all in µM.

{"compound": "Cc1ccc(Nc2nccc(N(C)c3ccc4c(C)n(C)nc4c3)n2)cc1S(N)(=O)=O", "IC50 / µM": 6.16}
{"compound": "Nc1ccn([C@@H]2O[C@H](CO)[C@@H](O)[C@@H]2O)c(=O)n1", "IC50 / µM": 0.219}
{"compound": "Cc1cc(Nc2cc(N3CCN(C)CC3)nc(Sc3ccc(NC(=O)C4CC4)cc3)n2)n[nH]1", "IC50 / µM": 1.8}

As a next step, examine the compound that follows.
Briefly, IC50 measured for COc1cc(F)c(F)c(Nc2ccc(I)cc2F)c1NS(=O)(=O)C1(CC(O)CO)CC1 (stereo not drawn) : 1.12

====

tested on: GMS-10; experiment: cells; assay type: functional, cell-based, Homo sapiens; conditions: Homo sapiens, GMS-10;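 also: growth inhibition of GMS-10 cells, read out as cell viability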
Description: SANGER: Inhibition of human GMS-10 cell growth in a cell viability assay.
Property: IC50; scope: individual molecules

Briefly, IC50 measured for O=C(NOCC1CC1)c1ccc(F)c(F)c1Nc1ccc(I)cc1Cl [CI-1040] : > 10 µM

Briefly, IC50 measured for C[C@]1(O)C[C@@H](c2nc(-c3ccc4ccc(-c5ccccc5)nc4c3)c3c(N)nccn32)C1 [LINSITINIB] : > 2.56 µM

Briefly, IC50 measured for Cn1cc(C2=C(c3ccc(Cl)cc3Cl)C(=O)NC2=O)c2ccccc21 [SB-216763] : > 10 µM

Briefly, IC50 measured for C=CCc1cccc(/C=N/NC(=O)CN2CCN(Cc3ccccc3)CC2)c1O [PAC-1] : > 2.56 µM

Briefly, IC50 measured for `O=C1N=C(NCc2cccs2)S/C1=C\c1ccc2ncccc2c1` : > 5 µM

====

system: SW684; assay: cells; format: functional, cell-based, Homo sapiens; details: Homo sapiens, SW684;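 also: growth inhibition of human SW684 cells, measured by a cell viability assay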
Description: SANGER: Inhibition of human SW684 cell growth in a cell viability assay.
pIC50: −log10 of the molar value.
measurementKind: pIC50

{"compound": "Cn1cncc1[C@@](N)(c1ccc(Cl)cc1)c1ccc2c(c1)c(-c1cccc(Cl)c1)cc(=O)n2C [TIPIFARNIB]", "measurementKind": "pIC50", "measurement": "< 4.80"}
{"compound": "O=C(NOCC1CC1)c1ccc(F)c(F)c1Nc1ccc(I)cc1Cl [CI-1040]", "measurementKind": "pIC50", "measurement": "< 5.00"}
{"compound": "COC(=O)CNC(=O)C(=O)OC", "measurementKind": "pIC50", "measurement": 2.61}
{"compound": "C=CCNC1=C2C[C@@H](C)C[C@H](OC)[C@H](O)[C@@H](C)/C=C(\\C)[C@H](OC(N)=O)[C@@H](OC)/C=C\\C=C(/C)C(=O)NC(=CC1=O)C2=O [TANESPIMYCIN]", "measurementKind": "pIC50", "measurement": 7.18}
{"compound": "O=C(c1cc(Cc2n[nH]c(=O)c3ccccc23)ccc1F)N1CCN(C(=O)C2CC2)CC1 [OLAPARIB]", "measurementKind": "pIC50", "measurement": "< 5.30"}

Briefly, pIC50 measured for COc1cc([C@@H]2c3cc4c(cc3[C@@H](O[C@@H]3O[C@@H]5CO[C@@H](C)O[C@H]5[C@H](O)[C@H]3O)[C@H]3COC(=O)[C@H]23)OCO4)cc(OC)c1O [ETOPOSIDE] : < 4.80

Briefly, pIC50 measured for O=c1cc(-c2cccc3c2Sc2ccccc2S3)oc(N2CCOCC2)c1 [KU-55933] : < 5.00

Briefly, pIC50 measured for Cc1ccc(Nc2nccc(N(C)c3ccc4c(C)n(C)nc4c3)n2)cc1S(N)(=O)=O [PAZOPANIB] : < 5.10
